experimental.system: HLA-DR DRB1*08:02 (Homo sapiens, UniProt P01903+P01911, A100R/A103L/A169T/F76Y/H45Y/I96F/K41T/L162R/M171V/P40S/Q125H/Q178H/Q39Y/Q99D/R218S/R42G/S66Y/V115G/W38E)
assay.remarks: biochemical
Assay type: binding
applied.conditions: read-out: Binding capacity/IC50 (nM) DRB1*08:02
Ends that are not written are not given here.
Quick rule for you: IC50 under 70 nM gets TRUE, anything else gets FALSE.

>>> category("DEELLKAVRIIKILYQSNP-NH2 [rev(9-27)]")
"TRUE"
>>> category("YAKMRSAHTNDVKQL-NH2 [RT(354-368)]")
"TRUE"
>>> category("SEELRSLYNTVATLYCVHQ-NH2 [p17(72-90)]")
"FALSE"
>>> category("LNKIVRMYSPVSILDI-NH2 [p24(138-153)]")
"TRUE"
>>> category("IVALIIAIVVWTIV-NH2 [vpu(13-26)]")
"FALSE"
>>> category("IRYPLTFGWCFKLVPVDPREVEEA-NH2 [nef(133-156)]")
"FALSE"
